test-method-notes: NCI Yeast Anticancer Drug Screen. Data for the sgs1 mgt1 strain (AID 161);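 further: 0% = growth of cultures given vehicle only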
experimental-setup: S. cerevisiae sgs1 mgt1 strain, at 50.0 µM, hits give high values
The panel holds about 79,000 compounds, 15% with a hit somewhere; the sample as a whole holds those more often.
Could you please report measured growth inhibition for the items listed next?
Give the quantity in %, number only.

Qu. I am curious: what growth inhibition value has been reported for c1ccc2c(c1)ccc1c2ccc2sc3ccccc3[n+]21 ?
Ans. 91.2

Qu. Follow-up item: CC/C(=C(/CC)c1ccc([O-])cc1)c1ccc([O-])cc1.CC/C(=C(\CC)c1ccc([O-])cc1)c1ccc([O-])cc1.O=C([CH-]C(=O)c1ccccc1)c1ccccc1.O=C([CH-]C(=O)c1ccccc1)c1ccccc1.O=C([CH-]C(=O)c1ccccc1)c1ccccc1.O=C([CH-]C(=O)c1ccccc1)c1ccccc1.[Ti+4].[Ti+4]
Ans. 84.4

Qu. Follow-up item: CCc1cccc(CC)c1NC(=O)C(C#N)C1=C(Cl)C(=O)c2ccccc2C1=O (stereo not given)
Ans. 90

Qu. Follow-up item: CC(C)(C)c1cc(C(P(=O)(c2ccccc2)c2ccccc2)P(=O)(c2ccccc2)c2ccccc2)cc(C(C)(C)C)c1O
Ans. 98.1

Qu. Follow-up item: COc1ccccc1C1C(Cl)C(=O)N1n1cnc2ccccc2c1=O (stereo not given)
Ans. 84.5

Qu. Follow-up item: Cn1c2c(c3nc(N)nc(N)c3c1=O)CCc1ccccc1-2
Ans. 69.5

Qu. Follow-up item: CCCCCCCCCCCC(=O)OC/C=C/COC(=O)c1ccccc1
Ans. 38.5

Qu. Follow-up item: Cc1c2cc[n+](C)cc2c(COC2OC(CO)C(O)C2O)c2c3ccccc3n(C)c12 (stereo not given)
Ans. 17.9

Qu. Follow-up item: CC(C)COC(=O)C1C2C=CC(CC2)C1C(=O)OCC(C)C (stereo not given)
Ans. 29.6

Qu. Follow-up item: COc1ccccc1NC(=O)c1ccccc1F
Ans. 0.2

Qu. Follow-up item: Nc1nnc(Cc2ccc(Br)cc2)o1
Ans. 24.3

Qu. Follow-up item: Oc1ccc(Br)cc1C=Nc1c(NC2CCCCC2)oc2ccc(Br)cc12
Ans. 41.8

Qu. Follow-up item: Clc1ccc(/C=N\Nc2ccccc2)c(Cl)c1
Ans. 30.1

Qu. Follow-up item: Nn1c(-c2ccccc2)nn(C(=O)c2ccccc2)c1=O
Ans. 60

Qu. Follow-up item: O=C1c2ccccc2CCC1C(O)(C(F)(F)F)C(F)(F)F (stereo not given)
Ans. -35.8

Qu. Follow-up item: Cc1ccc([Si](O)(c2ccc(C)cc2)c2ccc(C)cc2)cc1
Ans. 93.5

Qu. Follow-up item: CN1CCC(/C=C/c2cccc3ccccc23)CN1 (stereo not given) (tested in a mixture with another compound)
Ans. 79.3

Qu. Follow-up item: CCC(=O)Nc1ccc(NC(C)=O)cc1
Ans. -8.65

Qu. Follow-up item: CCC(=O)[O][Bi]([c]1ccccc1)[c]1ccccc1
Ans. 92.5

Qu. Follow-up item: CCOC(=O)C(C(=O)OCC)c1ccc([N+](=O)[O-])o1
Ans. 89.2

* * *

Could you please report measured growth inhibition for the items listed next?
test-method-notes: NCI Yeast Anticancer Drug Screen. Data for the cln2 rad14 strain (AID 165);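 further: 0% = growth equal to vehicle treated cultures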
experimental-setup: S. cerevisiae cln2 rad14 strain, at 50.0 µM (retest, dose inferred, filed as 5.0), hits give high values
Procedure: Growth inhibition of yeast strains with defined genetic alterations is measured as a screen for potential anti-cancer activity. Selected strains with alterations in DNA damage repair or cell cycle control were exposed to compounds and growth inhibition was measured relative to vehicle treated controls. The strain used in this assay is cln2 rad14
About 79,000 compounds went through this panel and 15% of them were active in at least one assay; those are over-represented in the sample as a whole.
Give the quantity in %, number only.

Qu. I am curious: what growth inhibition value has been reported for O=C(O)/C=C/C(=O)Nc1cccc2c1C(=O)c1ccccc1-2 ?
Ans. 96

Qu. Follow-up item: CC(=O)c1ccc([N+](=O)[O-])o1
Ans. 97

Qu. Follow-up item: C=CCc1cc([N+](=O)[O-])ccc1O
Ans. 85

Qu. Follow-up item: CC1(Cc2ccccc2)CCCC(C=O)C1=O.[Cu+2] (configuration not stated)
Ans. 92

Qu. Follow-up item: CC(C)C(CC(C)(C)C)OC(=O)Nc1cccc2ccccc12 (configuration not stated)
Ans. 95

Qu. Follow-up item: Cc1nc2c(nc1C)C(=O)C1=C(C2=O)C2C=CC1CC2
Ans. 68

Qu. Follow-up item: Cn1c(CCC2(C)Cc3ccccc3C(=O)O2)cc2ccccc2c1=O (configuration not stated)
Ans. 27

Qu. Follow-up item: CCN(CC)CCNc1ccc(OC)c2cccnc12
Ans. -2

Qu. Follow-up item: Cc1ccnc2ccc3ccccc3c12
Ans. -49

Qu. Follow-up item: C1=C(c2ccccc2)OC(c2ccccc2)=C[P+]1(c1ccccc1)c1ccccc1
Ans. 99

Qu. Follow-up item: CC(C)c1ccc(/C=C(\NC(=O)c2ccccc2)c2nc3ccccc3[nH]2)cc1
Ans. 49

Qu. Follow-up item: CCCC(C)C/C(C)=C\C(C)(C)C1CC(=O)N(CC)C1=O (configuration not stated)
Ans. 92

* * *

test-method-notes: NCI Yeast Anticancer Drug Screen. Data for the bub3 strain (AID 167)
experimental-setup: S. cerevisiae bub3 mutant strain, at 50.0 µM
Compounds without any hit were thinned out: in the full panel of roughly 79,000, 15% have a hit. The source made the active and inactive calls. Cut-off read from the data, not from the text of the source: active = growth inhibition above about 70%; inactive = the rest. Where a SMILES comes first, the peptide text is derived from it. The star is where a group is joined. Cbz = O=C(OCc1ccccc1)*
Write down one outcome, taken from 1 for active, 0 for inactive

Qu. Hey, what did the test say about CCN(CC)CCNc1ccc(OC)c2cccnc12 ?
Ans. 1

Qu. Follow-up item: CC(=O)OC1CCC(C(C)(C)C)C(C)C1 (stereo not drawn)
Ans. 0

Qu. Follow-up item: Cc1cc(NC(=S)SCc2ccc(F)cc2)ccc1Br
Ans. 1

Qu. Follow-up item: CCCCCCCCCCCCCCCCS(=O)(=O)Cl
Ans. 0

Qu. Follow-up item: O=C(COC(=O)C(c1ccccc1)c1ccccc1)c1ccc(Br)cc1
Ans. 1

Qu. Follow-up item: N#CC(Nc1cccc(C(F)(F)F)c1)c1ccccc1C(F)(F)F (stereo not drawn)
Ans. 1

Qu. Follow-up item: CC(C)CCCC(C)C1CCC2C3CCC4=CC(O)CCC4(C)C3CCC12C (stereo not drawn)
Ans. 1

Qu. Follow-up item: COc1ccc2c(c1)CN1C(CCC3c4ccccc4NC31)C2 (stereo not drawn)
Ans. 0

Qu. Follow-up item: CC(NNC(=S)N1CC2CCC(CC2)C1)c1nccc2ccccc12 (stereo not drawn)
Ans. 1

Qu. Follow-up item: CC(=O)OCc1ccc([N+](=O)[O-])o1
Ans. 1

Qu. Follow-up item: O=C(NC(Cc1ccc(O)cc1)C(=O)NC(Cc1ccccc1)C(=O)O)OCc1ccccc1 (stereo not drawn) (Cbz-Tyr-Phe-OH; configuration not given here)
Ans. 0

Qu. Follow-up item: O/N=C(/CCc1ccccc1Cl)c1ccccc1
Ans. 1

Qu. Follow-up item: O=C1CCC(c2ccccc2)=NN1c1nc2ccccc2s1
Ans. 1

Qu. Follow-up item: COc1ncnc2nc(SC)[nH]c12
Ans. 1

Qu. Follow-up item: Oc1cccc(-c2nc(-c3ccccc3)c(-c3ccccc3)[nH]2)c1
Ans. 1

Qu. Follow-up item: CC(C)COC(=O)c1ccc(NC(=O)CCl)cc1
Ans. 0

Qu. Follow-up item: COC(=O)C1CCN(Cc2ccccc2)CC1=O (stereo not drawn)
Ans. 1

Qu. Follow-up item: O=C(CN1CCCCC1)CC(O)(C(F)(F)F)C(F)(F)F
Ans. 0

Qu. Follow-up item: Cc1c2c(c(C)c3c1OC(C)(C)CC3)OC(C)(C)CC2
Ans. 0

Qu. Follow-up item: FC(F)(F)C(F)(F)C1(F)C(F)(F)C(F)(F)C(F)(F)C(F)(F)C1(F)F
Ans. 1

Qu. Follow-up item: O=C(/C=C/c1cc(O)c(O)cc1O)OCCc1ccccc1
Ans. 0

Qu. Follow-up item: C[n+]1c(-c2ccc(/C=N\NC(=O)c3ccc(C(=O)N/N=C/c4ccc(-c5cn6ccsc6[n+]5C)cc4)cc3)cc2)cn2ccsc21
Ans. 1

Qu. Follow-up item: Cc1ccc(C)c(C(=O)CCN)c1
Ans. 0

Qu. Follow-up item: Nc1ccc(Cl)c2c1C(=O)c1ccccc1C2=O
Ans. 0

Qu. Follow-up item: Cc1c2ncccc2cc2oc3ccccc3c(=O)c12
Ans. 0

Qu. Follow-up item: COC(=O)CC1SC(=S)N(Cc2ccc(Cl)cc2)C1=O (stereo not drawn)
Ans. 1

Qu. Follow-up item: c1ccc(SSc2ccccc2)cc1
Ans. 0

Qu. Follow-up item: CCN(CC)COC(=S)S
Ans. 1

Qu. Follow-up item: CCc1ccc(/C(C)=N/NC(N)=S)cc1
Ans. 0

Qu. Follow-up item: CNC(=O)OCc1c(COC(=O)NC)c(-c2ccc(OC)cc2)n2c1CCC2
Ans. 0

Qu. Follow-up item: CC(=O)Nc1ccc(-c2nnc(SCC(=O)Nc3ccc(Cl)cc3Cl)o2)cc1
Ans. 1

Qu. Follow-up item: O=C(O)c1c[nH]c2cc(Cl)ccc2c1=O
Ans. 0

Qu. Follow-up item: CCOC(=O)/C(=C\c1ccc(C)cc1)C(C)=O
Ans. 1

Qu. Follow-up item: OC/C(=C\c1ccccc1Br)c1ccccc1Br
Ans. 1

Qu. Follow-up item: COc1ccc(CNC(C#N)c2ccccc2)cc1OC (stereo not drawn)
Ans. 1

Qu. Follow-up item: C=C(CN(C)C)C(=O)c1ccccc1
Ans. 1

Qu. Follow-up item: Cc1cccc2c(=O)c3ccccc3oc12
Ans. 0

Qu. Follow-up item: Clc1ccc(C2SCc3nc4ccccc4n32)cc1Cl (stereo not drawn)
Ans. 1

Qu. Follow-up item: O=C(c1ccccc1)c1ccc2c(c1Cl)C(=O)c1ccccc1C2=O
Ans. 1

Qu. Follow-up item: O=C(N/C(=C\c1ccc(Oc2ccc(Cl)c(Cl)c2)cc1)c1nc2ccccc2[nH]1)c1ccccc1
Ans. 1

Qu. Follow-up item: C#CC(CC)(CC)N=Cc1cc(Cl)cc(Cl)c1O
Ans. 1

Qu. Follow-up item: CN(C)/N=C1\CC(c2ccccc2)C(C#N)(C#N)C1(C#N)C#N (stereo not drawn)
Ans. 1

Qu. Follow-up item: C/C(=N/NC(=S)N1CCCCC1)c1cccc(/C(C)=N\NC(=S)N2CCCCC2)n1
Ans. 1

Qu. Follow-up item: O=[N+]([O-])c1ccc(C(Br)(Br)c2ccc([N+](=O)[O-])cc2)cc1
Ans. 1

Qu. Follow-up item: CCN(CC)c1ccc2nc3ccc(N(CC)CC)cc3[n+](-c3ccccc3)c2c1
Ans. 1

Qu. Follow-up item: CCCCCCC/C=C\C(=O)O
Ans. 0

Qu. Follow-up item: O=C(c1ccccc1)C1(C(=O)c2ccccc2)/C(=N\O)C2CCC1C2 (stereo not drawn)
Ans. 0

Qu. Follow-up item: COC1=CC23C=CC1[C@@H](c1ccccc1)C2=C(C)C(=O)N3C(=O)NC1CCCCC1 (stereo partly drawn)
Ans. 0
